- system: human OX1R (Homo sapiens, UniProt O43613)
- Construct: expressed in transfected cells; host or cells: CHO (Chinese hamster ovary) cells, line CHOOX1R, co-expressing NFAT-luciferase
- Sequence (O43613 1-425): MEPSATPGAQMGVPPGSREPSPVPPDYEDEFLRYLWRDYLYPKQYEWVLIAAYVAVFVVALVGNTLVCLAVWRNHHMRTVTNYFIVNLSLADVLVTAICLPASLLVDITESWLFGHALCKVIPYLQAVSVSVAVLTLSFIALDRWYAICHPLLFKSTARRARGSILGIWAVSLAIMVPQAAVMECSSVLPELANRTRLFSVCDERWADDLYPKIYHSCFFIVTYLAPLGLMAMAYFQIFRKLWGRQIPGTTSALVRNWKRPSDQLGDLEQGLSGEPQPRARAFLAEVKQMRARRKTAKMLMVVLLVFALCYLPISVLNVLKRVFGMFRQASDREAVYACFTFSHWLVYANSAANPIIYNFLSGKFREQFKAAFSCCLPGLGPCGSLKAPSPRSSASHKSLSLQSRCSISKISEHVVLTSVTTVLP
- procedureSummary: Agonist activity against OX1R: intracellular calcium (Fura-2AM, FDSS7000) in CHOOX1R cells
- Format: cell-based
- testSettings: 0.1 μM test compound; relative to orexin-A as full agonist (100%)
Kindly supply the reported Response (%) OX1R values for the records listed here.
Provide only the numeric value, understood in %.

# Response (%) OX1R of COc1ccc(-c2cccc(C(=O)N(C)C)c2)cc1S(=O)(=O)Nc1cccc(NC(=O)c2ccc3ccccc3c2)c1 = 5

Consider COc1ccc(-c2cccc(C(=O)N(C)C)c2)cc1S(=O)(=O)Nc1cccc(NC(=O)Nc2ccc(N(C)C)nc2)c1 . Its measured Response (%) OX1R is 6

* * *

Give Response (%) OX1R for every item shown.
- system: human OX1R (Homo sapiens)
- Construct: expressed in transfected cells; host or cells: CHO (Chinese hamster ovary) cells, line CHOOX1R, co-expressing NFAT-luciferase
- Sequence (O43613 1-425): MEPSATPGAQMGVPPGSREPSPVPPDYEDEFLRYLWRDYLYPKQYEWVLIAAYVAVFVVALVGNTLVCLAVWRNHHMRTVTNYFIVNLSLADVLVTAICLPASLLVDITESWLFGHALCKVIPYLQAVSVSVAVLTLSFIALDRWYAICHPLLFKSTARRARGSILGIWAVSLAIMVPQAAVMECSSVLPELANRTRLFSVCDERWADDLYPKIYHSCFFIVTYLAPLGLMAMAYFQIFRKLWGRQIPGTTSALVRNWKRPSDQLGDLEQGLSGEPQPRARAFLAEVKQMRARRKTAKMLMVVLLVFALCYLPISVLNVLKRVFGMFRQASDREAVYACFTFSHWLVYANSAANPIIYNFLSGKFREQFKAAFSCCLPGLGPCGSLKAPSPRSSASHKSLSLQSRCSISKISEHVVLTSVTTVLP
- procedureSummary: Agonist activity against OX1R: intracellular calcium (Fura-2AM, FDSS7000) in CHOOX1R cells
- Type: cell-based
- testSettings: 10 μM test compound; relative to orexin-A as full agonist (100%)
The reply should be a number in %, with the unit left off.

Noted for COc1ccc(-c2cccc(C(=O)N(C)C)c2)cc1S(=O)(=O)Nc1cccc(NC(=O)OC(C)(C)C)c1 [Example 74] : its Response (%) OX1R reads 7

Input COc1ccc(-c2cccc(C(=O)N(C)C)c2)cc1S(=O)(=O)Nc1cccc(NCc2cccc(C)c2)c1 [Example 25] . Output Response (%) OX1R: 32

Memo: COc1ccc(-c2cccc(C(=O)N(C)C)c2)cc1S(=O)(=O)Nc1cccc(NC(=O)Nc2ccccc2Br)c1 [Example 43] , reported Response (%) OX1R: 10

// recorded Response (%) OX1R for COc1ccc(-c2cccc(C(=O)N(C)C)c2)cc1S(=O)(=O)Nc1cccc(NC(=O)Nc2ccc(C)cc2)c1 [Example 56] : 19

Looking up COc1ccc(-c2cccc(C(=O)N(C)C)c2)cc1S(=O)(=O)Nc1cccc(Nc2ccc3c(c2)OCO3)c1 [Example 36] , I found its Response (%) OX1R recorded as 10
